Assay: Half life in rat at 2 mg/kg, iv
Type: ADME, organism-based
Conditions: in vivo
measured attribute: half-life

• Cc1cc(C[C@@H](NC(=O)N2CCC3(CC2)OC(=O)Nc2ncccc23)C(=O)N[C@@H](CC2CCNCC2)C(=O)N2CCN(c3ccncc3)CC2)cc2cn[nH]c12 [HTL-0022562] = 4.7 h

====

Target: Cytochrome P450 1A2 (Homo sapiens)
Sequence (P05177 whole entry): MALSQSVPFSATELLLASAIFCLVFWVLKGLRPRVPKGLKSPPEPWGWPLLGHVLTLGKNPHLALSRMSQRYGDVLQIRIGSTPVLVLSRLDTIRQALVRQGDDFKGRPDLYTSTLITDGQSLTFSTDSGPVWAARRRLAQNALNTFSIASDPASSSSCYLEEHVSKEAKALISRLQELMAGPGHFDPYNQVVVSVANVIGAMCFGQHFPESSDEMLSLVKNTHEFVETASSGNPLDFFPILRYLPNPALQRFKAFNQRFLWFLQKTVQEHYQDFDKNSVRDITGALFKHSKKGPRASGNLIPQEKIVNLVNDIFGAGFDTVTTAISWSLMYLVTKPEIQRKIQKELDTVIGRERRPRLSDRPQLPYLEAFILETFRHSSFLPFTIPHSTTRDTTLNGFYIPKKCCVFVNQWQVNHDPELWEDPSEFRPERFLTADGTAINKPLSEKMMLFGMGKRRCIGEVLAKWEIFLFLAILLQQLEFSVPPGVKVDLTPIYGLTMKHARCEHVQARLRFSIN
Assay: Inhibition of CYP1A2 (unknown origin)
Assay type: ADME
pIC50: −log10 of the molar value.
measured attribute: pIC50

* Cc1cc(C[C@@H](NC(=O)N2CCC3(CC2)OC(=O)Nc2ncccc23)C(=O)N[C@@H](CC2CCNCC2)C(=O)N2CCN(c3ccncc3)CC2)cc2cn[nH]c12 | < 4.30

====

Assay: Clearance in cynomolgus monkey at 0.5 mg/kg, iv
Format: ADME, organism-based, Macaca fascicularis
Conditions: in vivo
measured attribute: clearance (mL/min/kg)

- Cc1cc(C[C@@H](NC(=O)N2CCC3(CC2)OC(=O)Nc2ncccc23)C(=O)N[C@@H](CC2CCNCC2)C(=O)N2CCN(c3ccncc3)CC2)cc2cn[nH]c12 [HTL-0022562]: 2

====

Biological target: Cytochrome P450 2D6 (Homo sapiens)
Sequence (P10635 whole entry): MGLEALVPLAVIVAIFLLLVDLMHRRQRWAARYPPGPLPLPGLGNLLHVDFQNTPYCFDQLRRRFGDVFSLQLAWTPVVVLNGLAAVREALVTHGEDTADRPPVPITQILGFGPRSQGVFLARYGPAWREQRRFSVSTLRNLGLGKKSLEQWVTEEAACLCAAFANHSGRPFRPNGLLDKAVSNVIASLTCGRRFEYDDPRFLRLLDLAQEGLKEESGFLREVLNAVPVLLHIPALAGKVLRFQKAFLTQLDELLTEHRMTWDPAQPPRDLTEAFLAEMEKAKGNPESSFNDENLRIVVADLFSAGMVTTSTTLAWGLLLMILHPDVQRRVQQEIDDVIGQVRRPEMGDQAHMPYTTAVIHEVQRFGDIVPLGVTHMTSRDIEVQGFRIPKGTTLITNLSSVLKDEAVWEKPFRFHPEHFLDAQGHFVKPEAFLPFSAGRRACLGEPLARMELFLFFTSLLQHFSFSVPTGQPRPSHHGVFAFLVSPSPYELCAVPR
measured attribute: IC50

- Cc1cc(C[C@@H](NC(=O)N2CCC3(CC2)OC(=O)Nc2ncccc23)C(=O)N[C@@H](CC2CCNCC2)C(=O)N2CCN(c3ccncc3)CC2)cc2cn[nH]c12 [HTL-0022562]: > 50.1 µM

====

Experiment: Oral bioavailability in cynomolgus monkey at 0.5 mg/kg
Type: ADME, organism-based, Macaca fascicularis
Settings: in vivo
measured attribute: bioavailability

- Cc1cc(C[C@@H](NC(=O)N2CCC3(CC2)OC(=O)Nc2ncccc23)C(=O)N[C@@H](CC2CCNCC2)C(=O)N2CCN(c3ccncc3)CC2)cc2cn[nH]c12: 117%

====

Test: Half life in rat hepatocytes
Type: ADME, cell-based, Hepatocyte
measured attribute: half-life

• Cc1cc(C[C@@H](NC(=O)N2CCC3(CC2)OC(=O)Nc2ncccc23)C(=O)N[C@@H](CC2CCNCC2)C(=O)N2CCN(c3ccncc3)CC2)cc2cn[nH]c12 = > 5 h

====

Assay: Clearance in rat at 2 mg/kg, iv using 10% DMAC[…] Solutol HS15/80% saline formulation
Type: ADME, organism-based
Conditions: in vivo
measured attribute: clearance

- Cc1cc(C[C@@H](NC(=O)N2CCC(N3Cc4ccccc4NC3=O)CC2)C(=O)N[C@@H](CC2CCNCC2)C(=O)N2CCN(c3ccncc3)CC2)cc2cn[nH]c12: 6 mL/min/kg
- Cc1cc(C[C@@H](NC(=O)N2CCC(c3cc4ccccc4[nH]c3=O)CC2)C(=O)N[C@@H](CC2CCNCC2)C(=O)N2CCN(c3ccncc3)CC2)cc2cn[nH]c12: 31 mL/min/kg
- NCCCC[C@H](NC(=O)[C@@H](Cc1cc(Br)c(O)c(Br)c1)NC(=O)N1CCC(N2Cc3ccccc3NC2=O)CC1)C(=O)N1CCN(c2ccncc2)CC1 [OLCEGEPANT]: 38 mL/min/kg
- O=C(N[C@@H](CC1CCNCC1)C(=O)N1CCN(c2ccncc2)CC1)[C@@H](Cc1cc(Br)c(O)c(Br)c1)NC(=O)N1CCC(n2c(=O)[nH]c3ncccc32)CC1: 28 mL/min/kg
- O=C(N[C@@H](CC1CCNCC1)C(=O)N1CCN(c2ccncc2)CC1)[C@@H](Cc1cc(Br)c(O)c(Br)c1)NC(=O)N1CCC(N2Cc3ccccc3NC2=O)CC1: 21 mL/min/kg
